Cited source for all entries: ChEMBL document CHEMBL1122843

Exercise: state measured IC50 for each of the molecules provided.
tested.system: Mu-type opioid receptor (Rattus norvegicus, UniProt P33535)
Sequence (P33535 whole entry): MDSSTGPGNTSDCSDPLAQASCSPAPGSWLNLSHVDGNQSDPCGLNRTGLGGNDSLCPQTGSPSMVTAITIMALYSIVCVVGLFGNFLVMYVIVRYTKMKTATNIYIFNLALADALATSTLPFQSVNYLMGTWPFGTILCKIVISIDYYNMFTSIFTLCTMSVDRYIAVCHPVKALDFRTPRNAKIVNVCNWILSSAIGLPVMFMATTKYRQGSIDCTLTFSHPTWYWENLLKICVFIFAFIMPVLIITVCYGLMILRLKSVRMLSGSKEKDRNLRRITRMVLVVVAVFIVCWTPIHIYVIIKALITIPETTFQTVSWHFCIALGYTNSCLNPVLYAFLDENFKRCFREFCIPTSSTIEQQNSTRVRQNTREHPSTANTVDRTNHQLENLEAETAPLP
test.protocol: Compound was evaluated for binding affinity against Opioid receptor mu 1 in rat brain membranes using [125I]-Tyr-D-Ala-Gly-NMePhe-Met
measurement.setup: read-out: I50
Response body: numeric value in nM, unit text excluded.

Annotate the molecule CN1CC[C@]23c4c5ccc(O)c4O[C@H]2[C@H](N)CC[C@@]3(O)[C@H]1C5 with its measured IC50. 9

Answer with reported IC50 of CN1CC[C@]23c4c5ccc(O)c4O[C@H]2[C@@H](N)CC[C@@]3(O)[C@H]1C5 13

---

tested.system: Delta-type opioid receptor (Rattus norvegicus)
Sequence (P33533 whole entry): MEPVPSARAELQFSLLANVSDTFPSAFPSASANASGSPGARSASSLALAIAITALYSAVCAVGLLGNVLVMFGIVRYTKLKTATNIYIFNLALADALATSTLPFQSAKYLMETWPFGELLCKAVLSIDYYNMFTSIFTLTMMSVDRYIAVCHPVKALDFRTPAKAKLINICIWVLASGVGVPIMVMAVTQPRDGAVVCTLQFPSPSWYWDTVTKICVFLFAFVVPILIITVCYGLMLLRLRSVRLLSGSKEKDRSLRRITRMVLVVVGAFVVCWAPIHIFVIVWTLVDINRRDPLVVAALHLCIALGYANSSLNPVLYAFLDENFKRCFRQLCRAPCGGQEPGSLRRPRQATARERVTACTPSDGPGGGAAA
test.protocol: Compound was evaluated for binding affinity against Opioid receptor delta 1 in rat brain membranes using [125I]-D-Ala2-Leu5-enkephalin
measurement.setup: read-out: I50
recorded.endpoint: IC50
Write the quantity with the unit trailing the number.

// fetch IC50 given entry CN1CC[C@]23c4c5ccc(O)c4O[C@H]2[C@@H](N)CC[C@@]3(O)[C@H]1C5 0.25 µM

Tell us which IC50 value is on record for CN1CC[C@]23c4c5ccc(O)c4O[C@H]2[C@H](N)CC[C@@]3(O)[C@H]1C5 0.11 µM
